Test system: L1210, CEM and HeLa cell lines
Assay: Cytostatic activity, average or summary over L1210, CEM and HeLa
Type: cell-based
Experimental setup: average of L1210, CEM and HeLa; read-out: Toxicity (IC50) Average
pIC50: −log10 of the molar value.
pIC50 values for the compounds below.
Measured quantity: pIC50

1. CN[C@H](CC(C)C)C(=O)N[C@H]1C(=O)N[C@@H](CC(N)=O)C(=O)N[C@H]2C(=O)N[C@H]3C(=O)N[C@H](C(=O)N[C@H](C(=O)NCCNC(=O)/C=C/c4ccc(Cl)cc4)c4cc(O)cc(O)c4-c4cc3ccc4O)[C@H](O)c3ccc(c(Cl)c3)Oc3cc2cc(c3O[C@@H]2O[C@H](CO)[C@@H](O)[C@H](O)[C@H]2O[C@H]2C[C@](C)(N)[C@H](O)[C@H](C)O2)Oc2ccc(cc2Cl)[C@H]1O [Vanc-20] ... 3.92
2. CNC(CC(C)C)C(=O)NC1C(=O)NC(CC(N)=O)C(=O)NC2C(=O)NC3C(=O)NC(C(=O)NC(C(=O)NCC(=O)Nc4ccc(-c5ccccc5)cc4)c4cc(O)cc(O)c4-c4cc3ccc4O)C(O)c3ccc(c(Cl)c3)Oc3cc2cc(c3OC2OC(CO)C(O)C(O)C2OC2CC(C)(N)C(O)C(C)O2)Oc2ccc(cc2Cl)C1O (centres unmarked) [Vanc-83] ... 3.97
